System: K-562 leukemia
Assay: NCI-60 one-dose screen, 48 h (100 = growth as untreated, 0 = no growth, -100 = all killed)
Conditions: 10 µM unless noted
The panel holds about 83,000 compounds, 20% with a hit somewhere; the sample as a whole holds those more often.
Checkbox rule: growth lower than 30% = class 1; growth not lower than 30% = class 0.

Exercise: Take the molecule `CCOC(=O)Nc1ccc(C(=O)/C=C/c2ccccc2)cc1` and say whether its growth is less than 30%.
Solution: class 1

Exercise: Does the reported growth of COc1ccc([C@H]2c3cc(OC)c(OC)cc3C=C(C=O)C2CO)cc1OC (some centres undefined) stay below 30%?
Solution: class 1

Exercise: Is the reported growth for `COc1cc2cc(Oc3ccc(NC(=O)Nc4ccc(Cl)c(Cl)c4)cc3)c(C)nc2cc1OCCN1CCOCC1` strictly below 30%?
Solution: class 0

Exercise: Given `O=c1cc(SCc2ccccc2)nc[nH]1` , is recorded growth strictly lower than 30%?
Solution: class 0

Exercise: # check: growth < 30% for `C[C@H]1[C@H]2[C@H]3CC[C@@H]4[C@@]5(C)CC[C@H](O)C(C)(C)[C@@H]5CC[C@@]4(C)[C@]3(C)CC[C@]23CO[C@]1(C)[C@@H](C(=O)/C=C\c1cccnc1)C3`
Solution: class 1

Exercise: Answer whether the molecule `CC(C)c1cc(C(C)C)c(S(=O)(=O)Oc2ccc(NC(=O)c3ccc(Cl)cc3)cc2)c(C(C)C)c1` has growth strictly less than 30%
Solution: class 1

Exercise: Is it true that growth reported for COc1cc(C2CC(c3ccc(SC)cc3)=NN2C(C)=O)cc(OC)c1OC (centres undefined) is less than 30%?
Solution: class 0

Exercise: Given the entry `CCOC(=O)Cn1c(=O)c2c(c3ccccc3n2C)n2nnc(-c3ccccc3)c12` , would its reported growth be below 30%?
Solution: class 0

Exercise: # strict comparison: is reported growth < 30%? input = `COc1cccc(-c2nn(-c3ccccc3)cc2-c2ccnc(N3CCOCC3)c2)c1`
Solution: class 0

====

Tested on: SNB-75 CNS
Assay: NCI-60 one-dose screen, 48 h (100 = growth as untreated, 0 = no growth, -100 = all killed)
Conditions: 10 µM unless noted
This is part of a sample that, as a whole, favours compounds with a hit. Of some 83,000 tested, about 20% had one in any assay. Activity calls are given as the source filed them. Rule for the calls: active = growth percent below 10; inactive = the rest.
result.type: growth

Exercise: Complete the entry with growth for `CS(=O)(=O)N(c1cc(-c2ccc3ncnc(Nc4ccc(F)c(Cl)c4)c3c2)cnc1Cl)S(C)(=O)=O`
Solution: -4.86% (active)

Exercise: Using known records, supply growth for `O=C(Nc1ccc(-c2nc(-c3cccc(OCCN4CCOCC4)c3)c(-c3ccnc(Br)c3)[nH]2)cc1)c1ccccc1`
Solution: -37.3% (active)

Exercise: Identify measured growth corresponding to CCOC(=O)C1=C(N)Oc2c(sc3c(C)cccc23)C1c1ccc(F)cc1 (centres undefined)
Solution: -4.15% (active)

Exercise: Provide growth value for the following compound: `Cc1ccc(S(=O)(=O)N/N=C/C2(c3ccccc3)CC2)cc1`
Solution: 88.2% (inactive)

Exercise: Determine from records and report growth for `O=C(CSc1nc2ccccc2[nH]1)Nc1cccc(Cl)c1`
Solution: 81.6% (inactive)

Exercise: Input `c1ccc(-c2nc3nonc3nc2-c2ccccc2)cc1` , output reported growth.
Solution: 65.4% (inactive)

Exercise: Look up and report measured growth for this entry: COc1ccc(C2CC(c3ccc(Nc4nc(Nc5ccc(F)cc5)nc(Nc5ccc(Cl)cc5)n4)cc3)=NN2C(C)=O)cc1 (centres undefined)
Solution: 85.5% (inactive)

Exercise: Fill in reported growth for this entry: `COc1cc2cc(Oc3ccc(NC(=O)Nc4ccc(Cl)c(Cl)c4)cc3)c(C)nc2cc1OCCN1CCOCC1`
Solution: 92.9% (inactive)

Exercise: Give me measured growth, please, for this compound: `NC(=O)Nc1ccc2ncnc(Nc3ccc(Cl)cc3)c2c1`
Solution: 95% (inactive)

Exercise: Consider the compound `O=C(CCCCCCSc1nc(-c2ccccc2)cc(-c2ccccc2)n1)NO` and give its recorded growth.
Solution: 21.2% (inactive)

Exercise: Answer with reported growth of CC(C)(C)NC(=O)C(OC(=O)c1cccc(Cl)c1)c1ccc(Cl)cc1 (centres undefined)
Solution: 103% (inactive)

Exercise: Check the records and state growth for `CCCCCCn1c(-c2ccc(C(=O)O/N=C(\N)c3ccc4c(c3)OCO4)cc2)nc(-c2ccccc2)c1-c1ccccc1`
Solution: -6.91% (active)

Exercise: Give the reported growth for this compound. `COc1ccc(-c2nc3sc(-c4ccccc4)cn3n2)cc1`
Solution: 65.2% (inactive)

Exercise: Please give the documented growth of CC(=O)OC[C@H]1OC(Sc2sc(C(=O)c3ccc(Br)cc3)c(N)c2-c2nc3ccccc3s2)[C@H](OC(C)=O)[C@@H](OC(C)=O)[C@H]1OC(C)=O (some centres undefined)
Solution: 74.5% (inactive)

Exercise: Let me know recorded growth for `CCOC(=O)c1cn2ncnc(Oc3ccc(NC(=O)NCCN(CC)CC)c(Cl)c3)c2c1C` , thanks.
Solution: 89.1% (inactive)

Exercise: // fetch growth given entry `CCc1ccc(Oc2c(-c3ccc(OCc4ccc(Cl)cc4)cc3O)n[nH]c2C(F)(F)F)cc1`
Solution: 36.6% (inactive)

Exercise: Please give measured growth of the following entry: `O=c1c2cc(F)cc(Cl)c2sc2c(NCCCNCCO)nc3ccccc3c12`
Solution: 74.6% (inactive)

Exercise: Supply reported growth belonging to this compound: `Oc1c(I)cc(I)cc1CNCCCN(Cc1ccccn1)Cc1ccccn1`
Solution: -89% (active)

Exercise: Give recorded growth. `FC(F)(F)c1cc(Nc2ccc3c(OCCCN4CCOCC4)cccc3n2)ccc1Cl`
Solution: 40.8% (inactive)

====

Test system: HCC-2998 colon
Test: NCI-60 one-dose screen, 48 h
Details: 10 µM unless noted
The panel holds about 83,000 compounds, 20% with a hit somewhere; the sample as a whole holds those more often. Activity calls are given as the source filed them. How the source made its calls: active means growth percent below 10; inactive means the rest.
Log the outcome using a class from active, inactive

Exercise: What call does the record list for `CCCCNc1nc(NN2C(=O)c3cccc4cccc(c34)C2=O)nc(-n2cnc3ccccc32)n1` ?
Solution: inactive

Exercise: Please indicate how the test categorized `Cc1ccc(-c2nc(N3CCN(CC(=O)Nc4ccc(Cl)cc4)CC3)c3ccccc3n2)cc1` .
Solution: inactive

Exercise: # outcome recorded in this test, key = CC1=C([Se]CC(OC(=O)[C@@H](CSSC(C)(C)C)NC(=O)OC(C)(C)C)C(=O)NC(C)(C)C)C(=O)c2ccccc2C1=O (some centres undefined)
Solution: active

Exercise: Recorded test outcome, item CCCC1CCC(O)(C(C)(O)C(=O)NC2C(=O)N3NCCCC3C(=O)N(O)C(C)C(=O)N3NCCCC3C(=O)N3NCC(O)CC3C(=O)NC(C)C(=O)OC2C(C)C)OC1CC (centres undefined)
Solution: active

====

Test system: 786-0 renal
Test: NCI-60 one-dose screen, 48 h (100 = growth as untreated, 0 = no growth, -100 = all killed)
Settings: 10 µM unless noted
The panel holds about 83,000 compounds, 20% with a hit somewhere; the sample as a whole holds those more often.
Classify: Criterion met when growth is strictly less than 90%; Criterion not met when growth is not.

Exercise: Answer whether the compound `O=C(CCN1C(=O)/C(=C/c2ccc(O)cc2)SC1=S)Nc1ccc(Cl)cc1` has growth strictly less than 90%
Solution: Criterion not met

Exercise: Does the reported growth of the following compound sit strictly below 90%? CN1C(=O)N(C)C2Nn3c(s/c(=C\c4ccccc4)c3=O)=NC21 (centres undefined)
Solution: Criterion not met

Exercise: Strictly below 90% in growth? `O=C(/C=C/c1sc(Cl)nc1Cl)c1ccc(F)cc1`
Solution: Criterion not met

Exercise: Identify whether the compound `O=C(Nc1ccc(-c2nc(-c3cccc(OCCN4CCOCC4)c3)c(-c3ccnc(Br)c3)[nH]2)cc1)c1ccccc1` records growth below 90%.
Solution: Criterion met

Exercise: Could you please tell me whether growth recorded for C/C=C(\C)C(=O)N[C@H]1[C@@H](OC(C)=O)C[C@]2(C)C3CC[C@@]4(C)C(CC[C@@H]4C(C)N(C)C)C3CCC2[C@H]1O (some centres undefined) is less than 90%?
Solution: Criterion met

Exercise: Problem: For the compound Cc1cccc2c3c(sc12)C(c1ccc(Cl)cc1)C(C#N)=C(/N=C/c1ccc(Cl)cc1)O3 (centres undefined) , is growth under 90%?
Solution: Criterion met

Exercise: Please determine if `COc1ccc(-c2nnc(COc3ccc(Cl)cc3Cl)o2)cc1OC` is below 90% in terms of growth.
Solution: Criterion met

Exercise: Does the reported growth of `O=C(O)c1cn(C2CC2)c2cc(N3CCN(C(=O)Nc4nc(-c5ccccc5)cs4)CC3)c(F)cc2c1=O` stay below 90%?
Solution: Criterion met

====

Test system: OVCAR-5 ovarian
Assay: NCI-60 one-dose screen, 48 h
Details: 10 µM unless noted
Compounds without any hit were thinned out: in the full panel of roughly 83,000, 20% have a hit. Activity calls are given as the source filed them. How the source made its calls: active means growth percent below 10; inactive means the rest.
Thanks in advance; please answer with one of these: T for active, F for inactive

Exercise: Could you please tell me the result logged for `Nc1ccccc1-c1cc2c(c3c1[nH]c1ccccc13)CCCCC2` in this assay?
Solution: F

Exercise: Which result was noted for this molecule in the test: `Cn1cc(-c2cc3ncnc(Nc4ccc(CC(=O)Nc5cc(C(C)(C)C)nn5C)cc4)c3s2)cn1`
Solution: F

Exercise: Short answer needed: outcome of this test for `CC/C=C\C[C@@H](O)C/C=C1/C(=O)C=C[C@H]1C/C=C\CCCC(=O)OC` ?
Solution: F

Exercise: Fill in: this test's call for `Clc1ccc2c(c1)N(CCCN1CCCC1)c1ccccc1S2` is ___
Solution: F

Exercise: Just curious, what result did `CN1CCN(c2ccc(-c3ccc4ncc(C#N)c(Nc5ccc(F)c(Cl)c5)c4c3)cn2)CC1` get here?
Solution: F

Exercise: Record request — test call for `Cc1onc2c(-c3ccccc3)n[nH]c(=O)c12`
Solution: F

Exercise: Which result was noted for this molecule in the test: C/C=C(\C)C(=O)N[C@H]1[C@@H](OC(C)=O)C[C@]2(C)C3CC[C@@]4(C)C(CC[C@@H]4C(C)N(C)C)C3CCC2[C@H]1O (some centres undefined)
Solution: F

Exercise: Outcome? COc1ccc(C2NC(=O)C(C#N)c3c2sc2c(F)cccc32)c(OC)c1 (centres undefined)
Solution: F

Exercise: Test call, this molecule: COc1ccc([C@H]2c3cc(OC)c(OC)cc3C=C(C=O)C2CO)cc1OC (some centres undefined)
Solution: F

Exercise: Outcome logged for `CCN(CC)CCNC(=O)c1cn2ncnc(Oc3ccc(NC(=O)Nc4ccc(Cl)c(C(F)(F)F)c4)cc3)c2c1C` in this assay:
Solution: T

Exercise: Tell me the recorded outcome of this test for `CS(=O)(=O)N(c1cc(-c2ccc3ncnc(Nc4ccc(F)c(Cl)c4)c3c2)cnc1Cl)S(C)(=O)=O` .
Solution: F

Exercise: Which result was noted for this molecule in the test: `Fc1cc2c(cc1Cl)N(c1ncnc3ccc(-c4cnc5cnccn45)cc13)CC2`
Solution: F

Exercise: Hey, what did the test say about `COc1cc(C(=O)c2cnc(-c3cccc4[nH]ccc34)[nH]2)cc(OC)c1OC` ?
Solution: F

Exercise: Entry `COc1cc2cc(Oc3ccc(NC(=O)Nc4ccc(Cl)c(Cl)c4)cc3)c(C)nc2cc1OCCN1CCOCC1` : call = ?
Solution: F

Exercise: Record request — test call for `COc1cc2cc(Oc3ccc(NC(=O)Nc4cc(C(F)(F)F)cc(C(F)(F)F)c4)cc3)c(C)nc2cc1OCCN1CCOCC1`
Solution: F

Exercise: Please state the recorded outcome for this molecule: `O=C(O)CCC/C=C\C[C@H]1C=CC(=O)/C1=C/C[C@@H](O)CCc1cccc(C(F)(F)F)c1`
Solution: T

Exercise: Each molecule tested received a call. Report the one for `O=c1c2cc(F)ccc2sc2c(N3CCNCC3)nc3ccc(F)cc3c12` .
Solution: F

Exercise: Which outcome was entered for the molecule `CCCCOc1ccc(/C=N/NC(N)=S)cc1` in this test?
Solution: F

Exercise: Hi, do you know how `O=c1c2cccc(F)c2sc2c(NCCCNCCO)nc3ccccc3c12` came out in this test?
Solution: F
